Recorded AUC(0-t) at 24 h by entry
Experiment: AUClast in rat at 40 mg/kg, po administered QD measured after 1 day
Type: ADME, organism-based
Parameters: dose 40 mg/kg, route oral
Conditions: plasma
QUANTITY_MEASURED: AUC(0-t) at 24 h (ng·h/mL)

>>> print(df.to_string())
                                   molecule  quantity_measured  measured
0  CC(C)Oc1nc(N)nc2c1ncn2[C@@H]1O[C@@H]2COP(=O)(OC3CCCC3)O[C@H]2[C@@]1(C)F (stereo partly drawn)   AUC(0-t) at 24 h       340
1  COc1nc(N)nc2c1ncn2[C@@H]1O[C@@H]2COP(=O)(OC3CCC3)O[C@H]2[C@@]1(C)F (stereo partly drawn)   AUC(0-t) at 24 h      9480
2  COc1nc(N)nc2c1ncn2[C@@H]1O[C@@H]2COP(=O)(OC3CCCC3)O[C@H]2[C@@]1(C)F (stereo partly drawn)   AUC(0-t) at 24 h       660

----------
Quick reference for EC90 among some compounds
System: Hepatitis C virus
Test: Antiviral activity against Hepatitis C virus genotype 1b replicon infected in Lunet cells by luciferase reporter gene assay
Format: functional, Hepacivirus hominis
QUANTITY_MEASURED: EC90 (nM)

>>> df
                                   compound  quantity_measured  readout_unit  qualifier_symbol  measured
0  COc1nc(N)nc2c1ncn2[C@@H]1O[C@@H]2COP(=O)(OC3CCCCC3)O[C@H]2[C@@]1(C)F (stereo partly drawn)               EC90            nM                 =        39
1  CCOc1nc(N)nc2c1ncn2[C@@H]1O[C@@H]2COP(=O)(OC(C)C)O[C@H]2[C@@]1(C)F (stereo partly drawn)               EC90            nM                 =       740
2  CC(C)Oc1nc(N)nc2c1ncn2[C@@H]1O[C@@H]2COP(=O)(O)O[C@H]2[C@@]1(C)F               EC90            nM                 >     10000
3  CC(C)Oc1nc(N)nc2c1ncn2[C@@H]1O[C@@H]2COP(=O)(OC3CCCCC3)O[C@H]2[C@@]1(C)F (stereo partly drawn)               EC90            nM                 =       300
4  COc1nc(N)nc2c1ncn2[C@@H]1O[C@@H]2COP(=O)(OC(C)C)O[C@H]2[C@@]1(C)F (stereo partly drawn)               EC90            nM                 =      25.8
5  COc1nc(N)nc2c1ncn2[C@@H]1O[C@@H]2COP(=O)(OC3CCC3)O[C@H]2[C@@]1(C)F (stereo partly drawn)               EC90            nM                 =        46
6  CC(C)Oc1nc(N)nc2c1ncn2[C@@H]1O[C@@H]2COP(=O)(OC3CCC3)O[C@H]2[C@@]1(C)F (stereo partly drawn)               EC90            nM                 =        50
7  COc1nc(N)nc2c1ncn2[C@@H]1O[C@@H]2COP(=O)(O)O[C@H]2[C@@]1(C)F               EC90            nM                 =       180

----------
Experiment: Half life in human liver S9 fraction
Format: ADME, subcellular
QUANTITY_MEASURED: half-life (h)

>>> print(df.to_string())
                                   compound  measured
0  CC(C)Oc1nc(N)nc2c1ncn2[C@@H]1O[C@@H]2COP(=O)(OC3CCC3)O[C@H]2[C@@]1(C)F (some centres undefined)       6.3
1  COc1nc(N)nc2c1ncn2[C@@H]1O[C@H](COP(=O)(N[C@@H](C)C(=O)OC(C)C)Oc2ccccc2)[C@@H](O)[C@@]1(C)F (some centres undefined)      0.44
2  COc1nc(N)nc2c1ncn2[C@@H]1O[C@@H]2COP(=O)(OC3CCCC3)O[C@H]2[C@@]1(C)F (some centres undefined)        20
3  COc1nc(N)nc2c1ncn2[C@@H]1O[C@@H]2COP(=O)(OC3CCC3)O[C@H]2[C@@]1(C)F (some centres undefined)       2.6

----------
Assay: Cmax in rat at 40 mg/kg, po administered QD measured after 7 days
Assay type: ADME, organism-based
Set-up: dose 40 mg/kg, route oral
Conditions: in vivo
QUANTITY_MEASURED: Cmax (ng/mL)

>>> print(df.to_string())
                                   compound  measured
0  CC(C)Oc1nc(N)nc2c1ncn2[C@@H]1O[C@@H]2COP(=O)(OC3CCCC3)O[C@H]2[C@@]1(C)F (stereo partly drawn)        50
1  COc1nc(N)nc2c1ncn2[C@@H]1O[C@@H]2COP(=O)(OC3CCCC3)O[C@H]2[C@@]1(C)F (stereo partly drawn)       120
2  COc1nc(N)nc2c1ncn2[C@@H]1O[C@@H]2COP(=O)(OC3CCC3)O[C@H]2[C@@]1(C)F (stereo partly drawn)      5170

----------
Recorded EC90 values for a group of compounds are listed next.
Test system: Hepatitis C virus
Test: Antiviral activity against Hepatitis C virus genotype 1b replicon infected in Lunet cells by luciferase reporter gene assay
Assay type: functional, Hepacivirus hominis
QUANTITY_MEASURED: EC90 (nM)

>>> print(df.to_string())
                                   compound  quantity_measured  readout_unit  measured
0  CCOP1(=O)OC[C@H]2O[C@@H](n3cnc4c(OC(C)C)nc(N)nc43)[C@](C)(F)[C@@H]2O1 (some centres not stated)               EC90            nM      2250
1  CCOP1(=O)OC[C@H]2O[C@@H](n3cnc4c(OC)nc(N)nc43)[C@](C)(F)[C@@H]2O1 (some centres not stated)               EC90            nM      35.8
2  CC(C)Oc1nc(N)nc2c1ncn2[C@@H]1O[C@@H]2COP(=O)(OCc3ccccc3)O[C@H]2[C@@]1(C)F (some centres not stated)               EC90            nM        40
3  COc1nc(N)nc2c1ncn2[C@@H]1O[C@@H]2COP(=O)(OCc3ccccc3)O[C@H]2[C@@]1(C)F (some centres not stated)               EC90            nM        70
4  COc1nc(N)nc2c1ncn2[C@@H]1O[C@@H]2COP(=O)(OC3CCCC3)O[C@H]2[C@@]1(C)F (some centres not stated)               EC90            nM        37
5  CC(C)Oc1nc(N)nc2c1ncn2[C@@H]1O[C@@H]2COP(=O)(OC(C)C)O[C@H]2[C@@]1(C)F (some centres not stated)               EC90            nM       740
6  CC(C)Oc1nc(N)nc2c1ncn2[C@@H]1O[C@@H]2COP(=O)(OC3CCCC3)O[C@H]2[C@@]1(C)F (some centres not stated)               EC90            nM        60

----------
// values below are reported Tmax
Tested on: Hepatocyte
Assay: Prodrug activation in human primary hepatocytes assessed as assessed as Tmax of beta-D-2'-deoxy-2'-alpha-fluoro-2'-beta-C-methylguanosine triphosphate level at 100 uM
Format: cell-based, Liver
QUANTITY_MEASURED: Tmax (h)

>>> print(df.to_string())
                                   compound  qualifier_symbol  measured
0  COc1nc(N)nc2c1ncn2[C@@H]1O[C@@H]2COP(=O)(OC3CCCC3)O[C@H]2[C@@]1(C)F (stereo not given in full)                 =         8
1  CC(C)Oc1nc(N)nc2c1ncn2[C@@H]1O[C@@H]2COP(=O)(OC3CCCC3)O[C@H]2[C@@]1(C)F (stereo not given in full)                 =        24
2  COc1nc(N)nc2c1ncn2[C@@H]1O[C@@H]2COP(=O)(OC3CCC3)O[C@H]2[C@@]1(C)F (stereo not given in full)                 >        48
3  CCOc1nc(N)nc2c1ncn2[C@@H]1O[C@@H]2COP(=O)(OC(C)C)O[C@H]2[C@@]1(C)F (stereo not given in full)                 =        24
4  COc1nc(N)nc2c1ncn2[C@@H]1O[C@H](COP(=O)(N[C@@H](C)C(=O)OC(C)C)Oc2ccccc2)[C@@H](O)[C@@]1(C)F (stereo not given in full)                 =         8
